readout.type: Ki (nM)
Could you give me the number in nM? Just the number is fine.

Please state recorded Ki (tested on SARS-CoV M^pro (Severe acute respiratory syndrome coronavirus, UniProt P0C6X7)) of CC(C)(C)NC(=O)N[C@H](C(=O)N1C[C@H]2[C@@H]([C@H]1C(=O)NC(CC1CCC1)C(=O)C(N)=O)C2(C)C)C(C)(C)C (stereo partly shown)
1430
